Assay: PubChem AID 1554
Settings: BJeLR (HRASV12) viability, CellTiter-Glo ATP luminescence, 48 h; active compounds read high; concentration not given here
Screen size: about 300,000 compounds; about 520 (0.17%) were called active. Many of the other results were omitted from the sample, so actives are more common in it than they were.
assayReadout: inhibition (%)
Number only, in %; omit the unit.

{"columns": ["compound", "assayReadout", "experimentalValue"],
 "data": [
  ["CC[C@H]1CC2CN3CCc4c([nH]c5ccccc45)C(C(=O)OC)(C2)C13 (stereo partly specified)", "inhibition", 2.65]
]}

Request: Sample `CC(C)CNC(=S)NC(=O)c1ccc(Cl)cc1` — what was its inhibition?
Response: -11.5

Request: Next compound up: `COc1ccc(N2CCN(C(C)=C3C(=O)c4ccccc4C3=O)CC2)cc1`
Response: 2.27

* * *

Assay: PubChem AID 1554
Details: BJeLR (HRASV12) viability, CellTiter-Glo ATP luminescence, 48 h; active compounds read high; concentration not given here
Out of some 300,000 compounds screened, about 520 (0.17%) were called active. This excerpt belongs to a sample that is enriched for actives.
assayReadout: inhibition (%)
Provide the reading as a plain figure in %.

Would you please look over these solved cases?
{"columns": ["compound", "assayReadout", "unitInfo", "experimentalValue"],
 "data": [
  ["Cc1nnc(SC(C)C(=O)Nc2ccc(S(=O)(=O)NC3CCCCC3)cc2)s1 (stereo not given)", "inhibition", "%", -6.12],
  ["COC(=O)CN1C(=O)C(C)(C)Oc2ccc(C(=O)Nc3cccc(OC)c3)cc21", "inhibition", "%", -4.31]
]}

Request: Given the compound CCCCCC(O)(CCN1CCCCC1)c1ccccc1 (stereo not given) , what is its reported inhibition?
Response: -2.94

Request: Another: `S=c1[nH]ccn1-c1ccc(Cl)cc1`
Response: 1.81

Request: # repeat for `C/C(=N/NC(=O)CN1CCN(S(=O)(=O)c2ccc(Br)cc2)CC1)c1ccncc1`
Response: 4.03

Request: Moving on to COc1ccc(C2=NOC(Cn3nc(C(=O)NCc4ccc5c(c4)OCO5)cc3-c3ccccc3)C2)cc1 (stereo not given)
Response: 8.13

Request: Okay, and `COc1cccc(C(=O)Nc2ccc(N3CCCC3)cc2)c1` ?
Response: 52.9

Request: Repeat with CC(C)CN(C(=O)c1cccc(S(=O)(=O)N2CCCCC2)c1)C1CCS(=O)(=O)C1 (stereo not given)
Response: 2.4

Request: Same question for `O=C(/C=C/c1ccco1)Nc1ccc(Oc2ccccc2)cc1` please.
Response: 66.3

Request: Next compound: `Cc1cccc(-n2ncc(C#N)c2-n2cccc2)c1`
Response: -4.28

* * *

Experiment: PubChem AID 1554
Settings: BJeLR (HRASV12) viability, CellTiter-Glo ATP luminescence, 48 h; active compounds read high; concentration not given here
In all, about 300,000 compounds went through this assay and about 520 (0.17%) were called active. The full list was thinned out, with actives kept by preference.
assayReadout: inhibition

{"columns": ["moleculeSmiles", "assayReadout", "experimentalValue"],
 "data": [
  ["CCOc1ccc(C(C)=O)cc1CSc1nnc(-c2ccncc2)n1CCOC", "inhibition", "-17.6% (inactive)"],
  ["CN(c1ccccc1)S(=O)(=O)c1cccc(C(=O)NNC(=O)c2ccncc2)c1", "inhibition", "-13.6% (inactive)"],
  ["CCOC(=O)c1c(C)nc(-c2ccccc2)nc1NC(=O)C(C)C", "inhibition", "-1.6% (inactive)"]
]}

Request: Need inhibition of `O=S(=O)(Cc1noc(-c2ccc(OC(F)(F)F)cc2)n1)c1ccc(F)cc1` , thanks.
Response: -11.6% (inactive)

Request: Lookup `CC1(C)CC(=O)C(C=NCCN2CCN(C(=S)Nc3cccc(Cl)c3)CC2)=C(O)C1`
Response: 8.42% (inactive)
